measurement.target: T1, human C5aR (CD88) (human, UniProt P21730 1-350)
T1 sequence (looked up): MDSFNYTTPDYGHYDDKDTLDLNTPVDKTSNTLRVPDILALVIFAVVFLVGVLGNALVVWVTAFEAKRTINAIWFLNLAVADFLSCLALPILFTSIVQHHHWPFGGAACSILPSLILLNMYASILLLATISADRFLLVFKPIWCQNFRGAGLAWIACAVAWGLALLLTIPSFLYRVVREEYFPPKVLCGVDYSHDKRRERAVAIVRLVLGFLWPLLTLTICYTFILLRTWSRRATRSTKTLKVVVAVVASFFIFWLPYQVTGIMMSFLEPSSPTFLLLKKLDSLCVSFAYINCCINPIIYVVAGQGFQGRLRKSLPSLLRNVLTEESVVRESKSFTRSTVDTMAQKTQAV
experiment: cell-based or functional assay
Non-standard residues stand in square brackets, D forms with d. No end group written: not given here. 2Nal = N[C@@H](Cc1ccc2ccccc2c1)C(=O)O; dCha = N[C@H](CC1CCCCC1)C(=O)O; hLeu = CC(C)CC[C@H](N)C(=O)O; Orn = NCCC[C@H](N)C(=O)O
readout.label: IC50 activity group, enzyme release assay

Please review the following examples before continuing.
Ac-F[Orn]P[dCha]W[hLeu] (lactam (positions not given here); not fully specified (bridges); printed as Ac-Phe-[Orn-Pro-cha-Trp-Hle]) [Ac-Phe-[Orn-Pro-cha-Trp-Hle]]; ≤ 50 nM
Ac-F[Orn]P[dCha]WA (lactam (positions not given here); not fully specified (bridges); printed as Ac-Phe-[Orn-Pro-cha-Trp-Ala]) [Ac-Phe-[Orn-Pro-cha-Trp-Ala]]; > 2000 nM

Please look at the following binder next.
Ask: Return the recorded IC50 activity group, enzyme release assay value; entry: Ac-F[Orn]P[dCha]W[2Nal]-NH2 [Ac-Phe-Orn-Pro-cha-Trp-2Ni-NH2]
Reply: ≤ 50 nM
